assay: in vitro; details: human, hela cells, % viability
PARAMETER: viability at 28.5 h, 10 µM (%)

MOLECULE: CC1=CCC2(CC1)COC(C(C)(C)CN(C)C)OC2 (stereo not shown)
RECORDED VALUE: 91.7
//
MOLECULE: CCC1(CC)OC(N[C@@H](C)c2ccc3ccccc3c2)=NC1=O
RECORDED VALUE: 90.2
//
MOLECULE: COc1ccc(S(=O)(=O)N2CCC(C(=O)O)CC2)cc1C(=O)O
RECORDED VALUE: 91.4
//
MOLECULE: CN(/N=C\c1ccc([N+](=O)[O-])cc1)c1nc(-c2ccccc2)cc(-c2ccccc2)n1
RECORDED VALUE: 88.9

---

assay: in vitro; settings: human, hela cells, % viability
Listing: viability at 28.5 h, 10 µM of selected molecules

MOLECULE: COC(=O)Cn1c(C(C)(C)C)cn2c3c(=O)n(C)c(=O)n(C)c3nc12
UNIT SPEC: %
viability at 28.5 h, 10 µM: 84.3

MOLECULE: CCC(CN1CCOCC1)NC(=O)Cc1coc2cc(C)cc(C)c12 (stereo not drawn)
UNIT SPEC: %
viability at 28.5 h, 10 µM: 103

MOLECULE: O=C(c1ccccc1)n1cc(-c2ccccn2)c(N2CCOCC2)n1
UNIT SPEC: %
viability at 28.5 h, 10 µM: 100

MOLECULE: COC(=O)c1cn([C@H]2CO[C@H]3[C@@H]2OC[C@@H]3NC(=O)C2CCCCC2)nn1
UNIT SPEC: %
viability at 28.5 h, 10 µM: 98.4

MOLECULE: O=C(CNC1Cc2ccccc2C1)Nc1ccc(Cl)cc1C(=O)c1ccccc1Cl
UNIT SPEC: %
viability at 28.5 h, 10 µM: 100

MOLECULE: Cc1cc(NS(=O)(=O)c2ccc(NC(=O)c3ccc(Br)cc3)cc2)no1
UNIT SPEC: %
viability at 28.5 h, 10 µM: 95.6

MOLECULE: c1cncc(COc2cncc(OC3CCN(CCc4c[nH]c5ccccc45)C3)n2)c1 (stereo not drawn)
UNIT SPEC: %
viability at 28.5 h, 10 µM: 111

MOLECULE: COc1cc(/C=C2\C=C(c3ccc(-c4ccccc4)cc3)OC2=O)ccc1O
UNIT SPEC: %
viability at 28.5 h, 10 µM: 88.5

MOLECULE: CC(C)(C)c1ccc(-c2nc(N)cc3ccccc23)cc1
UNIT SPEC: %
viability at 28.5 h, 10 µM: 109

MOLECULE: Cc1ccc(NC(=O)c2ccccc2)s1
UNIT SPEC: %
viability at 28.5 h, 10 µM: 95.2

MOLECULE: Cc1cccc(OCCNC(=O)CN2CCCC2c2cnn(C)c2)c1 (stereo not drawn)
UNIT SPEC: %
viability at 28.5 h, 10 µM: 81

MOLECULE: COc1ccccc1C(=O)N1CCN(C(=O)CN2CCCC2)CC1
UNIT SPEC: %
viability at 28.5 h, 10 µM: 88.1

MOLECULE: COC(=O)c1ccc(N2CCOCC2)c(NC(=O)c2cccnc2)c1
UNIT SPEC: %
viability at 28.5 h, 10 µM: 95.9

MOLECULE: O=C(c1cncc(O)c1)N1C2CCC1CC(c1ccc(F)cc1)C2 (stereo not drawn)
UNIT SPEC: %
viability at 28.5 h, 10 µM: 96.4

MOLECULE: CCc1c(C)nc(N)nc1N1N=C1SC(C(C)=O)C(C)=O
UNIT SPEC: %
viability at 28.5 h, 10 µM: 99.4

MOLECULE: C=CCNC(=O)c1ccccc1NC(=O)Cc1ccc(Cl)cc1
UNIT SPEC: %
viability at 28.5 h, 10 µM: 101

MOLECULE: CC(C)c1nc(CCNC(=O)C2(Cn3ccnc3)CC2)no1
UNIT SPEC: %
viability at 28.5 h, 10 µM: 86.2

MOLECULE: COc1ccc(Nc2nc(N)nc(CN3CC(C)CC(C)C3)n2)cc1 (stereo not drawn)
UNIT SPEC: %
viability at 28.5 h, 10 µM: 99.2
